test system: Escherichia coli TOP10; test: shrunken log2 fold change of peptide-encoding DNA abundance (4.5 h post-induction vs induction); higher = less antimicrobial activity (less host growth inhibition); settings: time post-induction: 4.5 h; library: site-saturation at positions 5, 18, 19, 20;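 further: peptides expressed intracellularly from a pBAD plasmid library in pooled LB shake-flask culture, induced with 0.3% L-arabinose, DNA abundance read by NGS, three biological replicates, DESeq2 with apeglm shrinkage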
observedProperty: shrunken log2 fold change

chainSequence: RRIRIRPPRLPRPRPRPYIYPRP
observedProperty: shrunken log2 fold change
recordedValue: -0.176

chainSequence: RRIRVRPPRLPRPRPRPCKPPRP
observedProperty: shrunken log2 fold change
recordedValue: -0.692

chainSequence: RRIRNRPPRLPRPRPRPTWVPRP
observedProperty: shrunken log2 fold change
recordedValue: 0.0257

chainSequence: RRIRPRPPRLPRPRPRPFRVPRP
observedProperty: shrunken log2 fold change
recordedValue: 0.0659

chainSequence: RRIRYRPPRLPRPRPRPVFLPRP
observedProperty: shrunken log2 fold change
recordedValue: -0.538

chainSequence: RRIRHRPPRLPRPRPRPSGAPRP
observedProperty: shrunken log2 fold change
recordedValue: -0.0845

chainSequence: RRIRQRPPRLPRPRPRPFIWPRP
observedProperty: shrunken log2 fold change
recordedValue: -0.357

chainSequence: RRIRKRPPRLPRPRPRPWIVPRP
observedProperty: shrunken log2 fold change
recordedValue: -0.056

chainSequence: RRIRRRPPRLPRPRPRPRFPPRP
observedProperty: shrunken log2 fold change
recordedValue: 0.676

chainSequence: RRIRWRPPRLPRPRPRPSRTPRP
observedProperty: shrunken log2 fold change
recordedValue: 0.188

chainSequence: RRIRNRPPRLPRPRPRPNFVPRP
observedProperty: shrunken log2 fold change
recordedValue: -0.317

chainSequence: RRIRPRPPRLPRPRPRPEVEPRP
observedProperty: shrunken log2 fold change
recordedValue: -0.00972

chainSequence: RRIRNRPPRLPRPRPRPMYEPRP
observedProperty: shrunken log2 fold change
recordedValue: 0.0112

chainSequence: RRIRLRPPRLPRPRPRPNGCPRP
observedProperty: shrunken log2 fold change
recordedValue: 0.00888

chainSequence: RRIRLRPPRLPRPRPRPRHDPRP
observedProperty: shrunken log2 fold change
recordedValue: 0.0303

src = the supplement of paper PMC9112550
